A collection of compounds and their measured IC50
System Name: BCL-2 (Homo sapiens (Human), UniProt P10415)
Sequence (P10415 1-211): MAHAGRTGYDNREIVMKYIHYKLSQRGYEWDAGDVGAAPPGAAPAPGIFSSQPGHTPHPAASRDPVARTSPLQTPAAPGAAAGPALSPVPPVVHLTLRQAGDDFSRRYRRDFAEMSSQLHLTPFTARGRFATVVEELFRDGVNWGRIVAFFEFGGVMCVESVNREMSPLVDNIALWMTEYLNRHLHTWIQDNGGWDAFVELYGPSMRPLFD
Measurement Notes: Protein-protein interaction assay BCL-2/Bad BH3 peptide (BCL-2 assay, TR-FRET)
Cond: read-out: BCL-2 Assay IC50 (median)
Answer with a number only, understood to be in µM.

Compound	Result Units	Measured Result
CCc1c2c(nn1C)C(CCC(C)(C)O)OCCCCn1c(C(=O)O)c(CCCOc3cccc4cc(F)ccc34)c3ccc(Cl)c-2c31 (racemic)	µM	19.6
CCc1c2c(nn1C)C(CCOC)OCCCCn1c(C(=O)O)c(CCCOc3cccc4cc(F)ccc34)c3ccc(Cl)c-2c31 (racemic) [Example 41]	µM	18.1

// switching to the query compound
Query for BCL-2 (Homo sapiens (Human), UniProt P10415): what IC50 does the record show for CCc1c2c(nn1C)C(CC(C)(C)O)OCCCCn1c(C(=O)O)c(CCCOc3cccc4cc(F)ccc34)c3ccc(Cl)c-2c31 (single isomer, unassigned; enantiomer 1) [Example 53] ?
17

---

Test system: SUDHL10 cells
Measurement Notes: Induction of cytotoxicity in SUDHL10 cells (Assay 6)
Assay type: cell-based
Cond: 5 h, CellTiter-Glo; read-out: Cytotox SUDHL10 IC50 (median)
Protocol: Assay 6 Induction of Cytotoxicity Upon Treatment of Cells with Selected Compounds In principle, compounds that induce apoptosis will concomitantly induce cell cytotoxicity. Therefore, cytotoxicity assays were run in parallel in SUDHL5 and SUDHL10 cells. As a control, medium without cells was also added to the plate. Cells were incubated in a humidified incubator at 37° C. overnight. […] Finally, luminescence was read at 0.1 ms, with a gain of 3000 using the PHERAstar FS microplate reader (BMG Labtech).
pIC50: −log10 of the molar value.
Given measured pIC50, output Fulfilled if it is greater than or equal to 6 and Not fulfilled if not.

Before answering, review these 8 worked examples.
Compound	Group
CCc1c2c(nn1C)C(CCN1CCOCC1)OCCCCn1c(C(=O)O)c(CCCOc3cccc4cc(F)ccc34)c3ccc(F)c-2c31 (single isomer, unassigned; enantiomer 2) [Example 51]	Not fulfilled
Cc1c2c(nn1C)C(CCN1CCOCC1)OCCCCn1c(C(=O)O)c(CCCOc3cccc4ccccc34)c3ccc(Cl)c-2c31 (single isomer, unassigned; enantiomer 1) [Example 14]	Fulfilled
CCc1c2c(nn1C)C(CCN1CCN(C)CC1)OCCCCn1c(C(=O)O)c(CCCOc3cccc4cc(F)ccc34)c3ccc(Cl)c-2c31 (single isomer, unassigned; stereoisomer 2) [Example 70]	Not fulfilled
CCC1OCCCCn2c(C(=O)O)c(CCCOc3cccc4ccccc34)c3ccc(Cl)c(c32)-c2c1nn(C)c2C (single isomer, unassigned; enantiomer 1) [Example 29]	Not fulfilled
CCc1c2c(nn1C)C(CCN1CCOCC1)OCCCCn1c(C(=O)O)c(CCCOc3cccc4ccccc34)c3ccc(F)c-2c31 (single isomer, unassigned; enantiomer 1) [Example 11]	Fulfilled
CCc1c2c(nn1C)C(CC(C)(C)O)OCCCCn1c(C(=O)O)c(CCCOc3cccc4cc(F)ccc34)c3ccc(Cl)c-2c31 (single isomer, unassigned; enantiomer 21) [Example 54]	Not fulfilled
Cc1c2c(nn1C)C(CCN1CCOCC1)OCCCCn1c(C(=O)O)c(CCCOc3cccc4ccccc34)c3cccc-2c31 (single isomer, unassigned; stereoisomer 1) [Example 5]	Fulfilled
CCc1c2c(nn1C)C(CCN1CC(F)(F)C1)OCCCCn1c(C(=O)O)c(CCCOc3cccc4cc(F)ccc34)c3ccc(Cl)c-2c31 (single isomer, unassigned; (-)) [Example 79]	Not fulfilled

Decide: is the reported value of pIC50 for CCc1c2c(nn1C)C(CCN1CCN(C)CC1)OCCCCn1c(C(=O)O)c(CCCOc3cccc4cc(F)ccc34)c3ccc(Cl)c-2c31 (single isomer, unassigned; stereoisomer 1) [Example 69] equal to or greater than 6?
Fulfilled

Is pIC50 for CCc1c2c(nn1C)C(CCC(C)(C)O)OCCCCn1c(C(=O)O)c(CCCOc3cccc4cc(F)ccc34)c3ccc(Cl)c-2c31 (single isomer, unassigned; enantiomer 2) [Example 76] at or above 6?
Not fulfilled

Is pIC50 at least 6? Consider CCc1c2c(nn1C)C(CCC1CCOCC1)OCCCCn1c(C(=O)O)c(CCCOc3cccc4cc(F)ccc34)c3ccc(Cl)c-2c31 (racemic) [Example 60]
Fulfilled

Given the entry CCc1c2c(nn1C)C(CCO)OCCCCn1c(C(=O)O)c(CCCOc3cccc4cc(F)ccc34)c3ccc(Cl)c-2c31 (single isomer, unassigned; enantiomer 2) [Example 46] , answer whether its pIC50 meets or surpasses 6.
Not fulfilled

Hi team, for CCc1c2c(nn1C)C(CCN(C)C)OCCCCn1c(C(=O)O)c(CCCOc3cccc4cc(F)ccc34)c3ccc(Cl)c-2c31 (single isomer, unassigned) [Example 83] , is the recorded pIC50 at or above 6?
Fulfilled

Answer whether pIC50 of CCc1c2c(nn1C)C(CCC1CCOCC1)OCCCCn1c(C(=O)O)c(CCCOc3cccc4cc(F)ccc34)c3ccc(Cl)c-2c31 (single isomer, unassigned; enantiomer 2) [Example 62] is greater than or equal to 6.
Not fulfilled

Quick check, pIC50 >= 6? Cc1c2c(nn1C)C(CCN1CCOCC1)OCCCCn1c(C(=O)O)c(CCCOc3cccc4ccccc34)c3ccc(F)c-2c31 (single isomer, unassigned; enantiomer 1) [Example 8]
Fulfilled

Evaluate CCc1c2c(nn1C)C(C(F)(F)F)OCCCCn1c(C(=O)O)c(CCCOc3cccc4ccccc34)c3ccc(Cl)c-2c31 (single isomer, unassigned; enantiomer 2) [Example 34] : pIC50 at minimum 6?
Not fulfilled

Form field: pIC50 at least 6? Entry: Cc1c2c(nn1C)C(C1CC1)OCCCCn1c(C(=O)O)c(CCCOc3cccc4ccccc34)c3ccc(Cl)c-2c31 (single isomer, unassigned; enantiomer 1) [Example 35]
Not fulfilled

Record CCc1c2c(nn1C)C(CCO)OCCCCn1c(C(=O)O)c(CCCOc3cccc4cc(F)ccc34)c3ccc(Cl)c-2c31 (single isomer, unassigned; enantiomer 1) [Example 45] ; criterion: pIC50 no lower than 6. Met?
Fulfilled

Is the recorded value of pIC50 equal to or greater than 6 for this compound? CCc1c2c(nn1C)C(CCN1CCN(C)CC1)OCCCCn1c(C(=O)O)c(CCCOc3cccc4cc(F)ccc34)c3ccc(Cl)c-2c31 (racemic) [Example 68]
Fulfilled
